pKi: −log10 of the molar value.
Assay system Adenosine receptor A2a (Homo sapiens, UniProt P29274); read-out recorded as pKi.
VALUE_TYPE: pKi

Sample answers from the record:
> print(dat)
                               input.smiles                           measured.target  value.type  meas.value
1  Nc1nc(-c2ccco2)c2cnn(CCc3ccc(C(=O)NO)cc3)c2n1  Adenosine receptor A2a (Homo sapiens, UniProt P29274)         pKi        6.36
2  Nc1nc(-c2ccco2)c2cnn(Cc3cccc(/C=C/C(=O)NO)c3)c2n1  Adenosine receptor A2a (Homo sapiens, UniProt P29274)         pKi        6.89

A: Nc1nc(-c2ccco2)c2cnn(CCCc3ccc(C(=O)Nc4ccccc4N)cc3)c2n1
B: Nc1nc(-c2ccco2)c2cnn(Cc3cccc(OCCCCCC(=O)NO)n3)c2n1
INPUT: Which record shows the lower pKi: the first, A , or the second, B ? Mark your selection by writing its label.
OUTPUT: A
(A: 6.85, B: 7.17)

----------
# TEST_DESCRIPTION: Mean residence time in male ICR mouse at 20 mg/kg, ip measured up to 24 hrs by LC-MS/MS analysis
# Type: ADME, organism-based
# SETUP_CONDITIONS: in vivo
VALUE_TYPE: MRT (min)
Write the value in min as a bare number.

INPUT: Reported MRT for "Nc1nc(-c2ccco2)c2cnn(CCc3ccc(C(=O)Nc4ccccc4N)cc3)c2n1" : what is it?
OUTPUT: 57

----------
# TEST_DESCRIPTION: Initial plasma concentration in male ICR mouse at 5 mg/kg, iv measured up to 24 hrs by LC-MS/MS analysis
# Assay type: ADME, organism-based
VALUE_TYPE: C0 at 24 h (ng/mL)
Write the value in ng/mL as a bare number.

INPUT: Reported C0 at 24 h for "Nc1nc(-c2ccco2)c2cnn(CCc3ccc(C(=O)Nc4ccccc4N)cc3)c2n1" : what is it?
OUTPUT: 6500

----------
# MEASURED_TARGET: Histone deacetylase 8 (Homo sapiens)
# Sequence (Q9BY41 whole entry): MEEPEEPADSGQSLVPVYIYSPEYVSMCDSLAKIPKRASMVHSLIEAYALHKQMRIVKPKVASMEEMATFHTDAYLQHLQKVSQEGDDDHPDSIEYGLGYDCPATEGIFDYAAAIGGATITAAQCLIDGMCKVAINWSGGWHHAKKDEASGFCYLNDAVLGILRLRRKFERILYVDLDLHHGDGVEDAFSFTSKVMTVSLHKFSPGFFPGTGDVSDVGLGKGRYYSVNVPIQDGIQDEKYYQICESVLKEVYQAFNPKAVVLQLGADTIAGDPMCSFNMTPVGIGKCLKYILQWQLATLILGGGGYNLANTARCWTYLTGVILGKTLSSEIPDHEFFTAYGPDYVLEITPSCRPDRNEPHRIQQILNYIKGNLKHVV
VALUE_TYPE: IC50 (nM)
Write the value in nM as a bare number.

INPUT: Reported IC50 for "Nc1nc(-c2ccco2)c2cnn(Cc3cccc(OCCCCCCC(=O)NO)c3)c2n1" : what is it?
OUTPUT: 1410

----------
# TEST_DESCRIPTION: Elimination rate constant in male ICR mouse at 20 mg/kg, ip measured up to 24 hrs by LC-MS/MS analysis
# Format: ADME, organism-based
# SETUP_CONDITIONS: in vivo
VALUE_TYPE: k el at 24 h (s⁻¹)
Write the value in s⁻¹ as a bare number.

INPUT: Reported k el at 24 h for "Nc1nc(-c2ccco2)c2cnn(CCc3ccc(C(=O)Nc4ccccc4N)cc3)c2n1" : what is it?
OUTPUT: 0.000234

----------
# System: MC-38
# TEST_DESCRIPTION: Antiproliferative activity against mouse MC38 cells after 72 hrs by CCK-8 assay
# Assay type: functional
VALUE_TYPE: GI50 (µM)
Write the value in µM as a bare number.

> print(dat)
                               input.smiles  value.type  meas.value
1  Cc1ccc(-c2nc(N)nc3c2cnn3Cc2cccc(OCCCCCC(=O)NO)c2)o1        GI50        23.2
2  Cc1ccc(-c2nc(N)nc3c2cnn3Cc2ccc(N)c(OCCCCCCC(=O)NO)c2)o1        GI50        26.7
3  Nc1nc(-c2ccco2)c2cnn(CCc3ccc(C(=O)Nc4ccccc4N)cc3)c2n1        GI50        0.29

We now examine a further molecule.
INPUT: Reported GI50 for MC-38, given "Cc1ccc(-c2nc(N)nc3c2cnn3CCc2ccc(C(=O)Nc3ccccc3N)cc2)o1" ?
OUTPUT: 7.97
